# System: T-47D breast
# METHOD NOTES: NCI-60 one-dose screen, 48 h (100 = growth as untreated, 0 = no growth, -100 = all killed)
# MEASUREMENT CONTEXT: 10 µM unless noted
# Protocol: Growth inhibition of the T-47D human tumor cell line is measured as a screen for anti-cancer activity. Cells are grown in 96 well plates and exposed to the test compound for 48 hours. Compounds are tested at a single concentration, which is 10^-5 M for most compounds. The reported endpoint is percent growth (GI% or GIPRCNT), where numbers from 0 - 100% represent growth inhibition, and numbers from -100% - 0 represent cell death. For example, a value of 40 represents 60% growth inhibition. […]
This is part of a sample that, as a whole, favours compounds with a hit. Of some 83,000 tested, about 20% had one in any assay.
MEASURED PROPERTY: growth (%)
Answers are plain numbers, in %.

INSERT INTO results (compound, measured_property, obs_value) VALUES
  ('CCCCN(CCC#N)C(N)=O', 'growth', 100),
  ('CCCCC/C=C/CCC(=O)N[C@H]1[C@H](Oc2c3cc4cc2Oc2ccc(cc2Cl)[C@@H](O[C@@H]2O[C@H](CO)[C@@H](O)[C@H](O)[C@H]2NC(C)=O)[C@@H]2NC(=O)[C@H](NC(=O)[C@@H]4NC(=O)[C@H]4NC(=O)[C@@H](Cc5ccc(c(Cl)c5)O3)NC(=O)[C@@H](N)c3ccc(O)c(c3)Oc3cc(O)cc4c3)c3ccc(O)c(c3)-c3c(O[C@H]4O[C@H](CO)[C@@H](O)[C@H](O)[C@@H]4O)cc(O)cc3[C@H](C(=O)O)NC2=O)O[C@H](CO)[C@H](O)[C@@H]1O', 'growth', 119),
  ('CCOC(=O)c1cc(C(=O)c2cc(OC)cc(OC)c2)n2ccccc12', 'growth', 49.3),
  ('O=C(O)/C=C\C(=O)Nc1ccc2c(c1)Cc1cc(F)ccc1-2', 'growth', 84.6),
  ('NCCNc1ccc([N+](=O)[O-])cc1', 'growth', 106),
  ('O=C(/C=C/C12c3ccccc3C(c3ccccc31)C1C(=O)NC(=O)C12)c1cccs1 (configuration not stated)', 'growth', 39.9);

Query: Entry under review: COc1ccc(Cn2cc3c(c2)-c2oncc2CC3)cc1 . Reported growth?
Result: 51.6

* * *

# Tested on: DU-145 prostate
# METHOD NOTES: NCI-60 one-dose screen, 48 h (100 = growth as untreated, 0 = no growth, -100 = all killed)
# MEASUREMENT CONTEXT: 10 µM unless noted
Compounds without any hit were thinned out: in the full panel of roughly 83,000, 20% have a hit.
I'd appreciate it if you could supply growth values for the items below.
Answers are plain numbers, in %.

Examples with answers:
INSERT INTO measurements (molecule, tested_system, obs_value) VALUES
  ('COc1cccc(-c2cc(-c3ccc(Nc4nc(Nc5ccc(Cl)cc5)nc(Nc5ccc(Cl)cc5)n4)cc3)nc(N)c2C#N)c1', 'DU-145 prostate', 56.3),
  ('Nc1n[nH]c2cccc(C#Cc3cccc(C(=O)Nc4ccc(Cl)c(C(F)(F)F)c4)c3)c12', 'DU-145 prostate', 83.6),
  ('CCN1CCN(CCOc2ccc(CNc3ccc4nc(CCC5CCCCC5)[nH]c4c3)cc2)CC1', 'DU-145 prostate', 50.3),
  ('COc1ccc(C(=O)/C=C/c2ccc(C)cc2)cc1S(N)(=O)=O', 'DU-145 prostate', 47.3),
  ('N#C/C(=C\c1cccc2cnccc12)N1N=NC2C=CC=CC21 (centres undefined)', 'DU-145 prostate', 8.33),
  ('Oc1c(Cl)cc(Cl)c2ccc(CN3CCNCC3)nc12', 'DU-145 prostate', 50.8),
  ('COC(=O)[C@@H](Cc1c[nH]c2ccccc12)NC[C@@H](O)CN1C(=O)/C(=C\c2cc(OC)c(OC)c(OC)c2)c2ccccc21', 'DU-145 prostate', 75.1),
  ('COC(=O)c1nc(-c2ccccc2)oc1S(=O)(=O)N1CCN(c2ccc(OC)cc2)CC1', 'DU-145 prostate', 86.5);

Query: Entry under review: Cc1c(-c2cnc3ccc(Cl)cc3c2C(=O)O)nnn1-c1ccc(Cl)cc1 . Reported growth?
Result: 114
